# Tested on: Bacillus subtilis
# method description: Antimicrobial activity against Bacillus subtilis BD54 by CLSI method
# Format: functional
# test context: Bacillus subtilis, BD54; read-out: MIC
measured attribute: MIC (µg/mL)
Give bare numbers, in µg/mL.

Hello, I would appreciate it if you could give MIC for each entry below.
1. FC1CN=C(c2ccc3cc(-c4ccc(-c5cc6ccc(C7=NCC(F)CN7)cc6o5)cn4)[nH]c3c2)NC1 (stereo not drawn)
2. c1cc2cc(-c3ccc(-c4cc5ccc(C6=NCCCN6)cc5s4)cc3)[nH]c2cc1C1=NCCCN1
3. c1cc2cc(-c3ccc(-c4cc5ccc(C6=NCCN6)cc5o4)s3)[nH]c2cc1C1=NCCN1
4. FC1CN=C(c2ccc3cc(-c4ccc(-c5cc6ccc(C7=NCC(F)CN7)cc6o5)s4)[nH]c3c2)NC1 (stereo not drawn)
5. c1cc2cc(-c3ccc(-c4nc5ccc(C6=NCCCN6)cc5[nH]4)cc3)[nH]c2cc1C1=NCCCN1
6. c1cc2cc(-c3ccc(-c4cn5cc(C6=NCCCN6)ccc5n4)cc3)[nH]c2cc1C1=NCCCN1

0.16
0.1
0.16
0.16
0.08
0.08

Hey, quick one: what's MIC for each of these?
1. Fc1cc(-c2cc3ccc(C4=NCCCN4)cc3[nH]2)ccc1-c1cc2ccc(C3=NCCCN3)cc2o1
2. c1cc2cc(-c3ccc(-c4cc5ccc(C6=NCCN6)cc5[nH]4)cc3)[nH]c2cc1C1=NCCN1

[0.08, 0.12]

====

# System: Bacillus subtilis
# method description: Antimicrobial activity against Bacillus subtilis BD54 by CLSI method
# Format: functional
# test context: Bacillus subtilis, BD54; read-out: MIC
So basically: is MIC under 0.6 µg/mL? Then true (1). Not under? Then false (0).

Recorded results for 7 compounds are shown here.
# compound, classification
rows = [
    ("CC1CNC(c2ccc3cc(-c4ccc(-c5ccc(N(C)C)cc5)cc4)[nH]c3c2)=N1 (stereo not drawn)", "false (0)"),
    ("c1cc2cc(-c3ccc(-c4nc5ccc(C6=NCCN6)cc5[nH]4)cc3)[nH]c2cc1C1=NCCN1", "true (1)"),
    ("FC1CN=C(c2ccc3cc(-c4ccc(-c5cc6ccc(C7=NCC(F)CN7)cc6o5)cc4)[nH]c3c2)NC1 (stereo not drawn)", "true (1)"),
    ("c1cc2cc(-c3ccc(-c4cc5ccc(C6=NCCCN6)cc5o4)s3)[nH]c2cc1C1=NCCCN1", "true (1)"),
    ("CC1CNC(c2ccc3cc(-c4ccc(-c5cc6ccc(C7=NC(C)CN7)cc6o5)cc4)[nH]c3c2)=N1 (stereo in doubt)", "true (1)"),
    ("c1cc2cc(-c3ccc(-c4cnc(N5CCOCC5)nc4)cc3)[nH]c2cc1C1=NCCCN1", "false (0)"),
    ("CN(C)c1ccc(-c2ccc(-c3cc4ccc(C5=NCCCN5)cc4[nH]3)cc2)cc1", "false (0)"),
]

Please find the next compound below.
Lab note: confirm whether the reported MIC for this compound is below 0.6 µg/mL, equality not counting. compound: CC1CNC(c2ccc3cc(-c4ccc(-c5cnc(N6CCCC6)nc5)cc4)[nH]c3c2)=N1 (stereo not drawn) false (0)

====

# Tested on: Bacillus anthracis
# method description: Antimicrobial activity against Bacillus anthracis Sterne by CLSI method
# Assay type: functional
# test context: Bacillus anthracis, Sterne; read-out: MIC
Give measured MIC for each item. Keep answers brief.
Answers are plain numbers, in µg/mL.

# compound, unit abbrev, endpoint value
records = [
    ("FC1CN=C(c2ccc3cc(-c4ccc(-c5cc6ccc(C7=NCC(F)CN7)cc6o5)s4)[nH]c3c2)NC1 (stereo unspecified)", "µg/mL", 0.31),
    ("CC1CNC(c2ccc3cc(-c4ccc(-c5ccc(N(C)C)cc5)cc4)[nH]c3c2)=N1 (stereo unspecified)", "µg/mL", 2.1),
    ("CC1CNC(c2ccc3cc(-c4ccc(-c5cnc(N6CCOCC6)nc5)cc4)[nH]c3c2)=N1 (stereo unspecified)", "µg/mL", 22.5),
    ("NCCCNc1cc(-c2cc3ccc(C4=NCCCN4)cc3[nH]2)ccc1-c1cc2ccc(C3=NCCCN3)cc2o1", "µg/mL", 0.63),
    ("CC1CNC(c2ccc3cc(-c4ccc(-c5cc6ccc(C7=NC(C)CN7)cc6o5)s4)[nH]c3c2)=N1 (stereo unspecified)", "µg/mL", 0.52),
    ("Cc1c(-c2ccc(-c3cc4ccc(C5=NCCCN5)cc4o3)cc2)[nH]c2cccc(C#N)c12", "µg/mL", 2.5),
]

Give MIC for all compounds that follow.
1. CN(C)c1ccc(-c2ccc(-c3cc4ccc(C5=NCCCN5)cc4[nH]3)cc2)cc1
2. COC1CN=C(c2ccc3cc(-c4ccc(-c5cc6ccc(C7=NCC(OC)CN7)cc6o5)cc4)[nH]c3c2)NC1 (stereo unspecified)
3. CC1CNC(c2ccc3cc(-c4ccc(-c5cnc(N6CCCC6)nc5)cc4)[nH]c3c2)=N1 (stereo unspecified)
4. c1cc2cc(-c3ccc(-c4cn5cc(C6=NCCCN6)ccc5n4)cc3)[nH]c2cc1C1=NCCCN1
5. c1cc2cc(-c3ccc(-c4cc5ccc(C6=NCCN6)cc5o4)s3)[nH]c2cc1C1=NCCN1
6. c1cc2cc(-c3ccc(-c4cc5ccc(C6=NCCCN6)cc5o4)cn3)[nH]c2cc1C1=NCCCN1
7. c1cc2cc(-c3ccc(-c4cc5ccc(C6=NCCCN6)cc5s4)cc3)[nH]c2cc1C1=NCCCN1
8. c1cc2cc(-c3ccc(-c4cnc(N5CCOCC5)nc4)cc3)[nH]c2cc1C1=NCCCN1

1: 0.47; 2: 0.31; 3: 40; 4: 1.25; 5: 1.09; 6: 0.16; 7: 0.16; 8: 0.55

====

# System: Bacillus subtilis
# method description: Antimicrobial activity against Bacillus subtilis BD54 by CLSI method
# Format: functional
# test context: Bacillus subtilis, BD54; read-out: MIC
Could you please report measured MIC for the items listed next?
One number for each entry, in µg/mL.

# compound, measured attribute, unit abbrev, endpoint value
records = [
    ("CC1CNC(c2ccc3cc(-c4ccc(-c5cnc(N6CCOCC6)nc5)cc4)[nH]c3c2)=N1 (stereo not given)", "MIC", "µg/mL", 10),
    ("OC1CN=C(c2ccc3cc(-c4ccc(-c5cc6ccc(C7=NCC(O)CN7)cc6o5)cc4)[nH]c3c2)NC1 (stereo not given)", "MIC", "µg/mL", 0.08),
]

# per-item lookup of MIC; items listed below
1. CC1CNC(c2ccc3cc(-c4ccc(-c5cc6ccc(C7=NC(C)CN7)cc6o5)s4)[nH]c3c2)=N1 (stereo not given)
2. OC1CN=C(c2ccc3cc(-c4ccc(-c5cc6ccc(C7=NCC(O)CN7)cc6o5)s4)[nH]c3c2)NC1 (stereo not given)
3. c1cc2cc(-c3ccc(-c4cc5ccc(C6=NCCCN6)cc5o4)cn3)[nH]c2cc1C1=NCCCN1
4. c1cc2cc(-c3ccc(-c4cn5cc(C6=NCCN6)ccc5n4)cc3)[nH]c2cc1C1=NCCN1
5. c1cc2cc(-c3ccc(-c4cn5ccc(C6=NCCN6)cc5n4)cc3)[nH]c2cc1C1=NCCN1

1. 0.31
2. 0.43
3. 0.08
4. 0.31
5. 2.5

Need MIC for each of these compounds.
1. NCCCNc1cc(-c2cc3ccc(C4=NCCCN4)cc3[nH]2)ccc1-c1cc2ccc(C3=NCCCN3)cc2o1
2. c1cc2cc(-c3ccc(-c4cc5ccc(C6=NCCCN6)cc5o4)cc3)[nH]c2cc1C1=NCCCN1
3. OC1CN=C(c2ccc3cc(-c4ccc(-c5cc6ccc(C7=NCC(O)CN7)cc6o5)cn4)[nH]c3c2)NC1 (stereo not given)

0.24
0.14
3.75

====

# System: Bacillus subtilis
# method description: Antimicrobial activity against Bacillus subtilis BD54 by CLSI method
# Type: functional
# test context: Bacillus subtilis, BD54; read-out: MIC
measured attribute: MIC (µg/mL)
Give bare numbers, in µg/mL.

Before answering, review these 4 worked examples.
# compound, unit abbrev, MIC
measured = [
    ("COC1CN=C(c2ccc3cc(-c4ccc(-c5cc6ccc(C7=NCC(OC)CN7)cc6o5)cc4)[nH]c3c2)NC1 (stereo not drawn)", "µg/mL", 0.08),
    ("Cc1c(-c2ccc(-c3cc4ccc(C5=NCCCN5)cc4o3)cc2)[nH]c2cccc(C#N)c12", "µg/mL", 2.5),
    ("c1cc2cc(-c3ccc(-c4cnc(N5CCCC5)nc4)cc3)[nH]c2cc1C1=NCCCN1", "µg/mL", 0.63),
    ("c1cc2oc(-c3ccc(-c4cc5ccc(C6=NCCCN6)cc5[nH]4)cc3)cc2cc1C1=NCCCN1", "µg/mL", 0.08),
]

Provide reported MIC for each item, in the same order as listed.
1. c1cc2cc(-c3ccc(-c4cn5ccc(C6=NCCCN6)cc5n4)cc3)[nH]c2cc1C1=NCCCN1
2. CC1CN=C(c2ccc3cc(-c4ccc(-c5cc6ccc(C7=NCC(C)CN7)cc6o5)cn4)[nH]c3c2)NC1 (stereo not drawn)
3. c1cc2cc(-c3ccc(-c4cc5ccc(C6=NCCN6)cc5o4)cc3)[nH]c2cc1C1=NCCN1
4. Cc1c(-c2ccc(-c3cc4ccc(C5=NCCCN5)cc4o3)cc2)[nH]c2cc(C3=NCCCN3)ccc12

[0.16, 0.08, 0.16, 0.08]
